test system: gluten-reactive T cells; test: 96-well plate whole blood cytokine release, IP-10 by MAGPIX multiplex bead assay; type: cell-based, human; settings: Subject 4; after oral gluten challenge; Max. 9463 pg/mL
Non-standard residues stand in square brackets, D forms with d. pGlu = O=C1CC[C@@H](C(=O)O)N1
value.kind: Percent of maximal response to individual gluten peptides, IP-10

1) (pE)QPFPEQPEQIIPQQP-amide ([pGlu]QPFPEQPEQIIPQQP-NH2; SMILES CC[C@H](C)[C@H](NC(=O)[C@H](CCC(N)=O)NC(=O)[C@H](CCC(=O)O)NC(=O)[C@@H]1CCCN1C(=O)[C@H](CCC(N)=O)NC(=O)[C@H](CCC(=O)O)NC(=O)[C@@H]1CCCN1C(=O)[C@H](Cc1ccccc1)NC(=O)[C@@H]1CCCN1C(=O)[C@H](CCC(N)=O)NC(=O)[C@@H]1CCC(=O)N1)C(=O)N[C@H](C(=O)N1CCC[C@H]1C(=O)N[C@@H](CCC(N)=O)C(=O)N[C@@H](CCC(N)=O)C(=O)N1CCC[C@H]1C(N)=O)[C@@H](C)CC) [Peptide 12]    5 % of max

For record (pE)LQPFPQPELPYPQPQ-amide ([pGlu]LQPFPQPELPYPQPQ-NH2; SMILES CC(C)C[C@H](NC(=O)[C@@H]1CCC(=O)N1)C(=O)N[C@@H](CCC(N)=O)C(=O)N1CCC[C@H]1C(=O)N[C@@H](Cc1ccccc1)C(=O)N1CCC[C@H]1C(=O)N[C@@H](CCC(N)=O)C(=O)N1CCC[C@H]1C(=O)N[C@@H](CCC(=O)O)C(=O)N[C@@H](CC(C)C)C(=O)N1CCC[C@H]1C(=O)N[C@@H](Cc1ccc(O)cc1)C(=O)N1CCC[C@H]1C(=O)N[C@@H](CCC(N)=O)C(=O)N1CCC[C@H]1C(=O)N[C@@H](CCC(N)=O)C(N)=O) [Peptide 1] the listed Percent of maximal response to individual gluten peptides, IP-10 is 96 % of max
